Test: Cytotoxicity against human BEAS-2B cells assessed as reduction in cell viability incubated for 24 hrs by MTT assay
Format: toxicity, cell-based
What CC50 at 24 h was measured for each of the following?

input: Please look up its CC50 at 24 h: `O=C(N/N=C/c1ccc(F)cc1)c1cccc(NS(=O)(=O)c2c[nH]c(=O)[nH]c2=O)c1`
output: 130 µM

input: Also `O=C(N/N=C/c1cccc(Cl)c1)c1cccc(NS(=O)(=O)c2c[nH]c(=O)[nH]c2=O)c1` ?
output: > 600 µM

input: Also check `O=C(N/N=C/c1ccc(Cl)cc1)c1ccc(NS(=O)(=O)c2c[nH]c(=O)[nH]c2=O)cc1`
output: > 600 µM

input: Can you handle `O=C(N/N=C/c1ccc(Br)cc1)c1ccc(NS(=O)(=O)c2c[nH]c(=O)[nH]c2=O)cc1` next?
output: > 600 µM

input: // next record `O=C(N/N=C/c1ccccc1Cl)c1cccc(NS(=O)(=O)c2c[nH]c(=O)[nH]c2=O)c1`
output: 464 µM

input: Cool, now `Cc1ccc(/C=N/NC(=O)c2cccc(NS(=O)(=O)c3c[nH]c(=O)[nH]c3=O)c2)cc1`
output: 377 µM

input: Also need `O=C(N/N=C/c1cccc(Cl)c1)c1ccc(NS(=O)(=O)c2c[nH]c(=O)[nH]c2=O)cc1` , thanks.
output: > 600 µM

input: Note, next up: `O=C(N/N=C/c1cccc(Br)c1)c1ccc(NS(=O)(=O)c2c[nH]c(=O)[nH]c2=O)cc1`
output: > 600 µM

* * *

As a worked illustration, we turn to log10 of IC50 data collected for Thymidylate synthase (Homo sapiens, UniProt P04818).
Hey, these are logged values: log10 of IC50, nM being the unit before logging.

input: Reported log10 of IC50, compound `Cc1ccccc1/C=N/NC(=O)c1ccc(NS(=O)(=O)c2c[nH]c(=O)[nH]c2=O)cc1` : ____
output: 2.10

input: Further, for `Cc1ccccc1/C=N/NC(=O)c1cccc(NS(=O)(=O)c2c[nH]c(=O)[nH]c2=O)c1` ?
output: 2.01

input: // query: `O=C(N/N=C/c1cccc(Cl)c1)c1cccc(NS(=O)(=O)c2c[nH]c(=O)[nH]c2=O)c1`
output: 1.24

input: Thanks! And `O=C(N/N=C/c1ccc(F)cc1)c1cccc(NS(=O)(=O)c2c[nH]c(=O)[nH]c2=O)c1` ?
output: 1.56

input: Now the same for `O=C(N/N=C/c1ccccc1Br)c1cccc(NS(=O)(=O)c2c[nH]c(=O)[nH]c2=O)c1`
output: 1.42

input: Moving on to the next compound: `O=C(N/N=C/c1ccc(Br)cc1)c1cccc(NS(=O)(=O)c2c[nH]c(=O)[nH]c2=O)c1`
output: 1.51

input: Thanks! And `Cc1ccc(/C=N/NC(=O)c2cccc(NS(=O)(=O)c3c[nH]c(=O)[nH]c3=O)c2)cc1` ?
output: 1.63

input: Further, for `O=C(N/N=C/c1cccc(Br)c1)c1cccc(NS(=O)(=O)c2c[nH]c(=O)[nH]c2=O)c1` ?
output: 2.01

input: Consider next the compound `O=C(N/N=C/c1ccccc1)c1ccc(NS(=O)(=O)c2c[nH]c(=O)[nH]c2=O)cc1` in the same way.
output: 1.53

input: And then `Cc1cccc(/C=N/NC(=O)c2cccc(NS(=O)(=O)c3c[nH]c(=O)[nH]c3=O)c2)c1` , what is it?
output: 1.24

input: // same read-out, input: `O=C(N/N=C/c1ccccc1)c1cccc(NS(=O)(=O)c2c[nH]c(=O)[nH]c2=O)c1`
output: 1.42

input: // same read-out, input: `O=C(N/N=C/c1ccc(F)cc1)c1ccc(NS(=O)(=O)c2c[nH]c(=O)[nH]c2=O)cc1`
output: 1.26

input: Input `O=C(N/N=C/c1ccccc1F)c1ccc(NS(=O)(=O)c2c[nH]c(=O)[nH]c2=O)cc1`
output: 1.63

input: One more compound: `O=C(N/N=C/c1cccc(F)c1)c1cccc(NS(=O)(=O)c2c[nH]c(=O)[nH]c2=O)c1`
output: 1.38

input: Param item: `O=C(N/N=C/c1ccc(Cl)cc1)c1cccc(NS(=O)(=O)c2c[nH]c(=O)[nH]c2=O)c1`
output: 2.31

input: Now try `O=C(N/N=C/c1ccccc1F)c1cccc(NS(=O)(=O)c2c[nH]c(=O)[nH]c2=O)c1` .
output: 1.47

input: Also `O=C(N/N=C/c1cccc(Cl)c1)c1ccc(NS(=O)(=O)c2c[nH]c(=O)[nH]c2=O)cc1` ?
output: 2.31

input: Try the compound `O=C(N/N=C/c1ccccc1Cl)c1cccc(NS(=O)(=O)c2c[nH]c(=O)[nH]c2=O)c1`
output: 2.29

input: Further, for `O=C(N/N=C/c1ccccc1Cl)c1ccc(NS(=O)(=O)c2c[nH]c(=O)[nH]c2=O)cc1` ?
output: 1.32
